Please provide measured normalized growth for the entries that follow.
test: chemical genetic growth profiling, strain panel (AID 1159580);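 also: tested at 20 µM; growth read once vehicle control cultures reached saturation at 30 °C; 1 = growth at the plate median or of vehicle wells; lower values mean less growth of the strain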; conditions: S. cerevisiae deletion strains, growth OD, locus YPL055C, strain LGE1, active compounds read low
Out of some 5,500 compounds screened, about 2,000 (36%) were called active. Roughly 18% stayed inconclusive and do not appear here. This is one part of the list.
I'd appreciate a reply containing only the number, no unit.

The compound listed as "COc1ccc(OC)c(S(=O)(=O)NCc2c(F)cccc2Cl)c1" has a reported normalized growth of 1.02

The compound listed as "CC1(C)CCC(C(C)(C)O)CC1" has a reported normalized growth of 1.01

The compound listed as "CC(C)(C)c1nc(N)sc1Br" has a reported normalized growth of 0.984
